The compounds listed here are annotated with their Ratio IC50.
# Species: Rattus norvegicus
# assay text: Selectivity index, ratio of IC50 for rat kidney ALR1 using sodium D-glucuronate as substrate incubated for 1 min and measured up to 4 mins using H2O-dissolved compound to IC50 for rat lens ALR2 using D,L-glyceraldehyde as substrate incubated for 1 min and measured up to 4 mins using H2O-dissolved compound

| smiles representation | Ratio IC50 |
| --- | --- |
| O=C(O)Cn1c2ccccc2c2nn(Cc3ccccc3)c(=O)nc21 | > 230 |
| COCn1nc2c3ccccc3n(CC(=O)O)c2nc1=O | > 1180 |
| O=C(O)Cn1nc2c3ccccc3n(CC(=O)O)c2nc1=O | 168 |

Recorded Ratio IC50 (compound O=C(O)Cn1c2ccccc2c2n[nH]c(=O)nc21 ): > 2380

----------
# assay text: Inhibition of rat kidney ALR1 using sodium D-glucuronate as substrate incubated for 1 min and measured up to 4 mins using H2O-dissolved compound by spectrophotometric analysis
pIC50: −log10 of the molar value.
endpoint label: pIC50

Please review the following examples before continuing.
| smiles representation | pIC50 |
| --- | --- |
| O=C(O)Cn1c2ccccc2c2nn(Cc3ccccc3)c(=O)nc21 | < 4.00 |
| O=C(O)Cn1c2ccccc2c2n[nH]c(=O)nc21 | < 4.00 |

# next compound below
The recorded pIC50 for COCn1nc2c3ccccc3n(CC(=O)O)c2nc1=O is < 4.00
